# Test system: CEM cells HIV-1 protection, formazan growth assay
# Assay Overview: NCI AIDS Antiviral Assay
# Cond: measured here: growth of uninfected CEM cells
pIC50: −log10 of the molar value.
Assay Endpoint: pIC50

Reference set, count: 6
1) C=CCCCCCCCCC(=O)NCCN1CCOCC1	< 3.70
2) S=c1sc2c(Cl)nc(Cl)nc2n1-c1ccccc1	< 4.50
3) CCCC(=O)Nc1cc(C)c(NC(=O)CN(CC)CC)c(C)c1	< 3.70
4) N#C/C(=C\N1CC(=O)NC1=S)C(N)=O	< 3.70
5) O=C(OCc1ccccc1)N1CC[C@@H](O)[C@H]1CO	< 3.70
6) O=C(Cc1nc2ccccc2s1)C(=O)Nc1ccccc1C(F)(F)F	< 4.15

Now, please, on to the next molecule.
Query: Quickly give me recorded pIC50 for "Cc1ccc2oc(=O)c(C#N)c(/C=C/c3cccc(Br)c3)c2c1"
Reply: < 4.00

###

# Tested on: CEM cells HIV-1 protection, formazan growth assay
# Assay Overview: NCI AIDS Antiviral Assay
# Cond: measured here: growth of uninfected CEM cells
// IC50 lookup, one value per entry

Reference set, count: 6
1. O=C(Nc1ccc([N+](=O)[O-])cn1)Nc1ccccc1F	> 200 µM
2. CC(=O)OC12c3ccccc3C1CCCCCC21OCCCO1 (stereo unspecified)	> 200 µM
3. O=S(Nc1ccccc1)c1ccc(-c2ccccc2)cc1 (stereo unspecified)	> 200 µM
4. NC(=O)N/N=C(\CC1OC(=O)c2ccccc21)c1ccco1 (stereo unspecified)	> 832 µM
5. Cc1ccccc1NC(=S)N=Nc1c(O)[nH]c2ccccc12	> 200 µM
6. CCOC(=O)c1nc2ccccc2nc1Nc1ccc(OC)c(OC)c1	> 200 µM

Query: Quickly give me recorded IC50 for O=[N+]([O-])c1ccc(Cl)cc1C1ON=C(c2ccccc2)N1C12CC3CC(CC(C3)C1)C2 (stereo unspecified)
Reply: > 100 µM

Query: Quickly give me recorded IC50 for "CCCCCC/C=C\CCCCCCCCCC1=CC(=O)C=C(OC)C1=O"
Reply: > 9.55 µM

###

# System: CEM cells HIV-1 protection, formazan growth assay
# Assay Overview: NCI AIDS Antiviral Assay
# Cond: measured here: growth of uninfected CEM cells
// pIC50 lookup, one value per entry
Quick note: pIC50 means taking -log10 of the concentration in moles per liter.

Reference set, count: 2
1. O=[N+]([O-])c1ccc(C2OC3CC4C5CCCC5C3C4O2)cc1 (stereo not drawn)	4.71
2. C[P+](Cc1ccccc1)(c1ccccc1)c1ccccc1	4.84

Query: Quickly give me recorded pIC50 for "Cc1cc2c3ccccc3nc2c2cc[nH]c(C)c12"
Reply: 5.28

###

# Tested on: CEM cells HIV-1 protection, formazan growth assay
# Assay Overview: NCI AIDS Antiviral Assay;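 active = compounds giving half or more protection of infected cells from virus-caused growth loss, again on retest; inactive = the rest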
Hello, when you answer, please use one of the following outcomes: Y = active, N = inactive

Below are worked cases with known answers.
1. O=C(N=Nc1ccc(Cl)cc1Cl)NNc1ccc(Cl)cc1Cl	N
2. N#Cc1c(O)c(/C=N/c2ncccn2)c(=O)n2c1[nH]c1ccccc12	N
3. CCOP(=O)(C/C=C\Cn1cnc(C(N)=O)c1N)OCC	N
4. O=C(CCn1ccnc1[N+](=O)[O-])NCCCn1ccnc1[N+](=O)[O-]	N
5. Cc1ccc(C2CC(c3ccc([N+](=O)[O-])cc3)=Nc3ccccc3S2)cc1 (stereo unspecified)	N
6. Cc1ccc(NC(=S)/N=C/c2c(O)[nH]c(=O)[nH]c2=O)c(C)c1	N
7. S=C(N1CC1)N1CC1	N
8. O=C(Nc1cc(Cl)c(Cl)cc1NC(=O)C(Cl)(Cl)Cl)C(Cl)(Cl)Cl	N

Query: Assay result, entry Cc1ccc(OCC2OC(n3cnc4c(Cl)nc(N)nc43)CC2Oc2ccc(C)cc2)cc1 (stereo unspecified) — outcome?
Reply: N

Query: Assay result, entry "COc1ccc(/C(=N/Nc2nc3ccccc3n2Cc2ccccc2)C(=O)O)cc1" — outcome?
Reply: N

Query: Assay result, entry "CCOc1ccc(N=Nc2ccc3oc(=O)c(C(=O)Nc4ccc(OC)cc4)cc3c2)cc1" — outcome?
Reply: N

Query: Assay result, entry Nc1ccc(C2SCC(=O)N2NS(=O)(=O)c2cccc(C(=O)O)c2)cc1 (stereo unspecified) — outcome?
Reply: Y

Query: Assay result, entry CC(=O)NC(CCCNCc1ccccc1)C(=O)NCc1ccccc1 (stereo unspecified) — outcome?
Reply: N

Query: Assay result, entry "O=C(O)CSc1n[nH]c(-c2ccc(O)cc2)n1" — outcome?
Reply: N

Query: Assay result, entry "COc1ccc(/C=c2\[nH]c3nc(=O)c(N4CCCCC4)c(N)n3c2=O)cc1" — outcome?
Reply: N

Query: Assay result, entry CC(C)CCC[C@@H](C)C1CCC2[C@@H]3CCC4C[C@H](CCC=C(c5cc(Cl)c(O)c(C(=O)O)c5)c5cc(Cl)c(O)c(C(=O)O)c5)CC[C@]4(C)C3CC[C@@]21C (stereo partly specified) — outcome?
Reply: Y

Query: Assay result, entry "COc1cccc(NC(=S)Nn2c(C)nc3ccccc3c2=O)c1" — outcome?
Reply: N
